tested on: red blood cells; test: Hemolysis assay; assay type: cell-based, Sprague-Dawley mouse
Where a SMILES comes first, the peptide text is derived from it. [ ]: non-standard residue; d: D form. Gly(N(CH2)2(3-indolyl)) = O=C(O)CNCCc1c[nH]c2ccccc12; Nspe = C[C@H](NCC(=O)O)c1ccccc1; Nlys = NCCCCNCC(=O)O
OBSERVATION_TYPE: Hmax (100 μM) (%)
I only need the number, in %, no unit after it.

Task: Give reported Hmax (100 μM) value for C[C@@H](c1ccccc1)N(CC(N)=O)C(=O)CN(C(=O)CN(CCCCN)C(=O)CN(C(=O)CN(C(=O)CN(CCCCN)C(=O)CN(C(=O)CN(C(=O)CN(CCCCN)C(=O)CN(C(=O)CN(C(=O)CN(CCCCN)C(=O)CNCCc1c[nH]c2ccccc12)[C@@H](C)c1ccccc1)[C@@H](C)c1ccccc1)[C@@H](C)c1ccccc1)[C@@H](C)c1ccccc1)[C@@H](C)c1ccccc1)[C@@H](C)c1ccccc1)[C@@H](C)c1ccccc1
Result: 100.5

Task: Give reported Hmax (100 μM) value for C[C@@H](c1ccccc1)N(CC(N)=O)C(=O)CN(C(=O)CN(CCCCN)C(=O)CN(C(=O)CN(C(=O)CN(CCCCN)C(=O)CN(C(=O)CN(C(=O)CN(CCCCN)C(=O)CN(C(=O)CN(C(=O)CN(CCCCN)C(=O)CN(Cc1ccccc1)C(=O)CNCc1ccccc1)[C@@H](C)c1ccccc1)[C@@H](C)c1ccccc1)[C@@H](C)c1ccccc1)[C@@H](C)c1ccccc1)[C@@H](C)c1ccccc1)[C@@H](C)c1ccccc1)[C@@H](C)c1ccccc1
Result: 105.6

Task: Give reported Hmax (100 μM) value for C[C@@H](c1ccccc1)N(CC(=O)N(CCCCN)CC(=O)N(CCCCN)CC(=O)N(CC(=O)N(CC(=O)N(CCCCN)CC(=O)N(CC(=O)N(CC(=O)N(CCCCN)CC(N)=O)[C@@H](C)c1ccccc1)[C@@H](C)c1ccccc1)[C@@H](C)c1ccccc1)[C@@H](C)c1ccccc1)C(=O)CN(CCCCN)C(=O)CN(CCc1c[nH]c2ccccc12)C(=O)CNCCc1c[nH]c2ccccc12 [Peptoid 38] (H-[Gly(N(CH2)2(3-indolyl))][Gly(N(CH2)2(3-indolyl))][Nlys][Nspe][Nlys][Nlys][Nspe][Nspe][Nlys][Nspe][Nspe][Nlys]-NH2)
Result: 5.9

Data origin: patent US20240226228A1
